System: CAMK1D;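 also: KINOMEscan kinase panel screen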
experimental_parameters: concentration: 1 μM,replicates: in singlicate; n = 1
Below is a list of entries, each paired with its recorded %Inh value.
Give your result in % as a bare value.

Use the examples below as a reference point.
In [3]: df
Out[3]:
                    structure_smiles_string  endpoint_name  result_number
0  COC(=O)Nc1nc2cc(Oc3ccc(NC(=O)Nc4cc(C(F)(F)F)ccc4Cl)cc3)ccc2[nH]1.Cl           %Inh             13
1  Cl.Cl.NC[C@H](CC1CCCCC1)NC(=O)c1ccc(-c2ccnc3[nH]ccc23)s1           %Inh             36
2  Cl.c1ccc(Oc2ccc(Nc3ccnc4cc(-c5ccc(CN6CCNCC6)o5)ccc34)cc2)nc1           %Inh             20
3  C[C@@H](Oc1cc(-n2cnc3ccc(-c4ccncc4)cc32)sc1C(N)=O)c1ccccc1Cl           %Inh             21

Record summary for CCOC(=O)N1CCC(n2cnc(-c3ccc(F)cc3)c2-c2ccnc(N)n2)CC1 : reported %Inh = 3

Record summary for CN(c1ccc2c(c1)nc(NCc1ccc(F)cc1)n2C)c1ccnc(Nc2ccc(CS(C)(=O)=O)cc2)n1.Cl : reported %Inh = 0
